Just for reference, patent US20250320312A1 is where these values come from.

Biological target: T1, Peptide 8: Biotin-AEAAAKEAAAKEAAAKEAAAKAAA-Tyr-acid (N-terminal biotin; C-terminal acid)
T1 construct: control peptide without PC
T1 peptide: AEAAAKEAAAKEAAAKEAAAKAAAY
Assay: scFv ELISA
In this section, each of the binders is paired with its reported OD450.
Just the number please, in OD450, no unit attached.

PcOxP_DB02_A06 (scFv, V domains shown, scFv in periplasmic extract) VH: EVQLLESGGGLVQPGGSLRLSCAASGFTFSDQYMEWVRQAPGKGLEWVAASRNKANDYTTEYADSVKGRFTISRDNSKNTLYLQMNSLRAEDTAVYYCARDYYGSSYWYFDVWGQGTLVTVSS VL: DIQMTQSPSSLSASVGDRVTITCTASESLYSSKHKVHYLAWYQQKPGKAPKLLIYGLSNRYIGVPSRFSGSGSGTDFTLTISSLQPEDFATYYCAQFYSYPLTFGGGTKVEIK : 0.05

Give the measured OD450 for PcOxP_DB03_D01 (scFv, V domains shown, scFv in periplasmic extract) VH: EVQLLESGGGLVQPGGSLRLSCAASGFTFSDEYMEWVRQAPGKGLEWVAASRNKANDYTTEYADSVKGRFTISRDNSKNTLYLQMNSLRAEDTAVYYCARDYYGSSYWYFDVWGQGTLVTVSS VL: DIQMTQSPSSLSASVGDRVTITCTASESLYSSKHKVHYLAWYQQKPGKAPKLLIYGASNRYIGVPSRFSGSGSGTDFTLTISSLQPEDFATYYCAQFYYYPLTFGGGTKVEIK
0.05
